target: T1, human α4β7 integrin on cells (human, UniProt P13612 34-1032; P26010 20-798); assay: RPMI8866 cell adhesion to MAdCAM-1
T1 construct: whole, on cells; also called α4β7 cell (Hu); RPMI8866 cells
pIC50: −log10 of the molar value. Bridge positions count the residues as written; N and C are the ends. Square brackets hold non-standard residues; d marks the D form. Ends that are not written are not given here. * marks the point of attachment. Phe(4-tBu) = CC(C)(C)c1ccc(C[C@H](N)C(=O)O)cc1; NMeR = CN[C@@H](CCCNC(=N)N)C(=O)O; β3hE = N[C@@H](CCC(=O)O)CC(=O)O; Pen = CC(C)(S)[C@H](N)C(=O)O; Isovaleryl = CC(C)CC(=O)*
MEASURED_PARAMETER: pIC50

Consider the following illustrative entries.
Ac-[Pen][NMeR]SQIQ[Pen][Phe(4-tBu)][β3hE][dK]-NH2 (disulfide 1-7; also: homodimer via IDA linker on D-Lys10 side chains, Alexa-647 label) [SEQ ID NO: 192] :: < 5.00
Ac-[Pen][NMeR]SDTL[Pen][Phe(4-tBu)][β3hE]-NH2 (disulfide 1-7; SMILES CC(=O)N[C@@H]1C(=O)N(C)[C@@H](CCCNC(=N)N)C(=O)N[C@@H](CO)C(=O)N[C@@H](CC(=O)O)C(=O)N[C@@H]([C@@H](C)O)C(=O)N[C@@H](CC(C)C)C(=O)N[C@H](C(=O)N[C@@H](Cc2ccc(C(C)(C)C)cc2)C(=O)N[C@@H](CCC(=O)O)CC(N)=O)C(C)(C)SSC1(C)C) [SEQ ID NO: 165] :: < 8.00
Ac-[Pen][NMeR]SDTL[Pen][Phe(4-tBu)][β3hE][dK]-NH2 (disulfide 1-7; SMILES CC(=O)N[C@@H]1C(=O)N(C)[C@@H](CCCNC(=N)N)C(=O)N[C@@H](CO)C(=O)N[C@@H](CC(=O)O)C(=O)N[C@@H]([C@@H](C)O)C(=O)N[C@@H](CC(C)C)C(=O)N[C@H](C(=O)N[C@@H](Cc2ccc(C(C)(C)C)cc2)C(=O)N[C@@H](CCC(=O)O)CC(=O)N[C@H](CCCCN)C(N)=O)C(C)(C)SSC1(C)C) [SEQ ID NO: 153] :: < 8.00
XRSDTLXWE (Cyclo [Pen N-Me-R S D T L Pen W e]; disulfide Pen-Pen) [SEQ ID NO: 145] :: < 5.00
Ac-[Pen][NMeR]SDTL[Pen][Phe(4-tBu)][β3hE][dK](Isovaleryl) (disulfide 1-7) [SEQ ID NO: 171] :: < 8.00

Now consider the entry below.
Exam item: Tell me measured pIC50 for Ac-[Pen][NMeR]SDTL[Pen]WQ[dK]-NH2 (disulfide 1-7; not fully specified (residue 10); printed as (Ac Pen N-Me-R S D T L Pen W Q k NH2)2 DIG, disulfide Pen-Pen; also: homodimer: two subunits linked by DIG via D-Lys10 side chain) [SEQ ID NO: 82] please.
Marked response: < 7.30
